EXPERIMENT_NOTES: Free concentration and protein binding in spiked human serum samples (Table S5)
SETUP_CONDITIONS: human, serum, PB, S5b, serum of patient 20 (critically ill) spiked 50 mg/L, measured c 54.5 mg/L; calibration with human serum
MEASUREMENT_KIND: fraction unbound
Give a plain numeric answer without units written out.

Record CN[C@H]1C(=O)N[C@@H]2Cc3ccc(cc3)Oc3cc4cc(c3O[C@@H]3O[C@H](C(=O)O)[C@@H](O)[C@H](O)[C@H]3NC(=O)CCCCCCCCC(C)C)Oc3ccc(cc3Cl)[C@@H](O)[C@@H]3NC(=O)[C@H](NC(=O)[C@@H]4NC(=O)[C@@H](NC2=O)c2cc(cc(O)c2Cl)Oc2cc1ccc2O)c1ccc(O)c(c1)-c1c(O[C@H]2O[C@H](CO)[C@@H](O)[C@H](O)[C@@H]2O)cc(O)cc1[C@@H](C(=O)NCCCN(C)C)NC3=O . Reported fraction unbound: 0.03

###

EXPERIMENT_NOTES: clinical
SETUP_CONDITIONS: human, in vivo, 1500 mg, cmax(d1)
MEASUREMENT_KIND: Cmax (µg/mL)
Numeric only. Scale: µg/mL

Record CN[C@H]1C(=O)N[C@@H]2Cc3ccc(cc3)Oc3cc4cc(c3O[C@@H]3O[C@H](C(=O)O)[C@@H](O)[C@H](O)[C@H]3NC(=O)CCCCCCCCC(C)C)Oc3ccc(cc3Cl)[C@@H](O)[C@@H]3NC(=O)[C@H](NC(=O)[C@@H]4NC(=O)[C@@H](NC2=O)c2cc(cc(O)c2Cl)Oc2cc1ccc2O)c1ccc(O)c(c1)-c1c(O[C@H]2O[C@H](CO)[C@@H](O)[C@H](O)[C@@H]2O)cc(O)cc1[C@@H](C(=O)NCCCN(C)C)NC3=O [dalbavancin, Dalbavancin] . Reported Cmax: 278

###

EXPERIMENT_NOTES: Free concentration and protein binding in spiked human serum samples (Table S5)
SETUP_CONDITIONS: human, serum, PB, S5a, serum of patient 8 (critically ill) spiked 50 mg/L, measured c 54.3 mg/L; calibration with sheep serum
MEASUREMENT_KIND: fraction unbound
Give a plain numeric answer without units written out.

Record CN[C@H]1C(=O)N[C@@H]2Cc3ccc(cc3)Oc3cc4cc(c3O[C@@H]3O[C@H](C(=O)O)[C@@H](O)[C@H](O)[C@H]3NC(=O)CCCCCCCCC(C)C)Oc3ccc(cc3Cl)[C@@H](O)[C@@H]3NC(=O)[C@H](NC(=O)[C@@H]4NC(=O)[C@@H](NC2=O)c2cc(cc(O)c2Cl)Oc2cc1ccc2O)c1ccc(O)c(c1)-c1c(O[C@H]2O[C@H](CO)[C@@H](O)[C@H](O)[C@@H]2O)cc(O)cc1[C@@H](C(=O)NCCCN(C)C)NC3=O . Reported fraction unbound: 0.03

###

EXPERIMENT_NOTES: Free concentration and protein binding in spiked human serum samples (Table S5)
SETUP_CONDITIONS: human, serum, PB, S5a, serum of patient 10 (non-critically ill) spiked 200 mg/L, measured c 180 mg/L; calibration with sheep serum
MEASUREMENT_KIND: fraction unbound
Give a plain numeric answer without units written out.

Record CN[C@H]1C(=O)N[C@@H]2Cc3ccc(cc3)Oc3cc4cc(c3O[C@@H]3O[C@H](C(=O)O)[C@@H](O)[C@H](O)[C@H]3NC(=O)CCCCCCCCC(C)C)Oc3ccc(cc3Cl)[C@@H](O)[C@@H]3NC(=O)[C@H](NC(=O)[C@@H]4NC(=O)[C@@H](NC2=O)c2cc(cc(O)c2Cl)Oc2cc1ccc2O)c1ccc(O)c(c1)-c1c(O[C@H]2O[C@H](CO)[C@@H](O)[C@H](O)[C@@H]2O)cc(O)cc1[C@@H](C(=O)NCCCN(C)C)NC3=O . Reported fraction unbound: 0.02

###

EXPERIMENT_NOTES: Free concentration and protein binding in spiked human serum samples (Table S5)
SETUP_CONDITIONS: human, serum, PB, S5b, serum of 26 (healthy volunteer) spiked 50 mg/L, measured c 52.6 mg/L; calibration with human serum
MEASUREMENT_KIND: fraction unbound
Give a plain numeric answer without units written out.

Record CN[C@H]1C(=O)N[C@@H]2Cc3ccc(cc3)Oc3cc4cc(c3O[C@@H]3O[C@H](C(=O)O)[C@@H](O)[C@H](O)[C@H]3NC(=O)CCCCCCCCC(C)C)Oc3ccc(cc3Cl)[C@@H](O)[C@@H]3NC(=O)[C@H](NC(=O)[C@@H]4NC(=O)[C@@H](NC2=O)c2cc(cc(O)c2Cl)Oc2cc1ccc2O)c1ccc(O)c(c1)-c1c(O[C@H]2O[C@H](CO)[C@@H](O)[C@H](O)[C@@H]2O)cc(O)cc1[C@@H](C(=O)NCCCN(C)C)NC3=O [dalbavancin, Dalbavancin] . Reported fraction unbound: 0.03

###

EXPERIMENT_NOTES: clinical
SETUP_CONDITIONS: human, in vivo, iv, 1500 mg, cmin(d8)
MEASUREMENT_KIND: level at 192 h (ng/mL)
Numeric only. Scale: ng/mL

Record CN[C@H]1C(=O)N[C@@H]2Cc3ccc(cc3)Oc3cc4cc(c3O[C@@H]3O[C@H](C(=O)O)[C@@H](O)[C@H](O)[C@H]3NC(=O)CCCCCCCCC(C)C)Oc3ccc(cc3Cl)[C@@H](O)[C@@H]3NC(=O)[C@H](NC(=O)[C@@H]4NC(=O)[C@@H](NC2=O)c2cc(cc(O)c2Cl)Oc2cc1ccc2O)c1ccc(O)c(c1)-c1c(O[C@H]2O[C@H](CO)[C@@H](O)[C@H](O)[C@@H]2O)cc(O)cc1[C@@H](C(=O)NCCCN(C)C)NC3=O . Reported level at 192 h: 44900

###

EXPERIMENT_NOTES: Free concentration and protein binding in spiked human serum samples (Table S5)
SETUP_CONDITIONS: human, serum, PB, S5b, serum of patient 15 (critically ill) spiked 50 mg/L, measured c 56.7 mg/L; calibration with human serum
MEASUREMENT_KIND: fraction unbound
Give a plain numeric answer without units written out.

Record CN[C@H]1C(=O)N[C@@H]2Cc3ccc(cc3)Oc3cc4cc(c3O[C@@H]3O[C@H](C(=O)O)[C@@H](O)[C@H](O)[C@H]3NC(=O)CCCCCCCCC(C)C)Oc3ccc(cc3Cl)[C@@H](O)[C@@H]3NC(=O)[C@H](NC(=O)[C@@H]4NC(=O)[C@@H](NC2=O)c2cc(cc(O)c2Cl)Oc2cc1ccc2O)c1ccc(O)c(c1)-c1c(O[C@H]2O[C@H](CO)[C@@H](O)[C@H](O)[C@@H]2O)cc(O)cc1[C@@H](C(=O)NCCCN(C)C)NC3=O [dalbavancin, Dalbavancin] . Reported fraction unbound: 0.03

###

EXPERIMENT_NOTES: Free concentration and protein binding in spiked human serum samples (Table S5)
SETUP_CONDITIONS: human, serum, PB, S5a, serum of patient 11 (non-critically ill) spiked 200 mg/L, measured c 177 mg/L; calibration with sheep serum
MEASUREMENT_KIND: fraction unbound
Give a plain numeric answer without units written out.

Record CN[C@H]1C(=O)N[C@@H]2Cc3ccc(cc3)Oc3cc4cc(c3O[C@@H]3O[C@H](C(=O)O)[C@@H](O)[C@H](O)[C@H]3NC(=O)CCCCCCCCC(C)C)Oc3ccc(cc3Cl)[C@@H](O)[C@@H]3NC(=O)[C@H](NC(=O)[C@@H]4NC(=O)[C@@H](NC2=O)c2cc(cc(O)c2Cl)Oc2cc1ccc2O)c1ccc(O)c(c1)-c1c(O[C@H]2O[C@H](CO)[C@@H](O)[C@H](O)[C@@H]2O)cc(O)cc1[C@@H](C(=O)NCCCN(C)C)NC3=O [dalbavancin, Dalbavancin] . Reported fraction unbound: 0.02

###

EXPERIMENT_NOTES: Free concentration and protein binding in spiked human serum samples (Table S5)
SETUP_CONDITIONS: human, serum, PB, S5b, serum of 24 (healthy volunteer) spiked 50 mg/L, measured c 46.1 mg/L; calibration with human serum
MEASUREMENT_KIND: fraction unbound

Record CN[C@H]1C(=O)N[C@@H]2Cc3ccc(cc3)Oc3cc4cc(c3O[C@@H]3O[C@H](C(=O)O)[C@@H](O)[C@H](O)[C@H]3NC(=O)CCCCCCCCC(C)C)Oc3ccc(cc3Cl)[C@@H](O)[C@@H]3NC(=O)[C@H](NC(=O)[C@@H]4NC(=O)[C@@H](NC2=O)c2cc(cc(O)c2Cl)Oc2cc1ccc2O)c1ccc(O)c(c1)-c1c(O[C@H]2O[C@H](CO)[C@@H](O)[C@H](O)[C@@H]2O)cc(O)cc1[C@@H](C(=O)NCCCN(C)C)NC3=O [dalbavancin, Dalbavancin] . Reported fraction unbound: 0.03

###

EXPERIMENT_NOTES: Free concentration and protein binding in spiked human serum samples (Table S5)
SETUP_CONDITIONS: human, serum, PB, S5a, serum of patient 9 (non-critically ill) spiked 200 mg/L, measured c 177 mg/L; calibration with sheep serum
MEASUREMENT_KIND: fraction unbound
Give a plain numeric answer without units written out.

Record CN[C@H]1C(=O)N[C@@H]2Cc3ccc(cc3)Oc3cc4cc(c3O[C@@H]3O[C@H](C(=O)O)[C@@H](O)[C@H](O)[C@H]3NC(=O)CCCCCCCCC(C)C)Oc3ccc(cc3Cl)[C@@H](O)[C@@H]3NC(=O)[C@H](NC(=O)[C@@H]4NC(=O)[C@@H](NC2=O)c2cc(cc(O)c2Cl)Oc2cc1ccc2O)c1ccc(O)c(c1)-c1c(O[C@H]2O[C@H](CO)[C@@H](O)[C@H](O)[C@@H]2O)cc(O)cc1[C@@H](C(=O)NCCCN(C)C)NC3=O [dalbavancin, Dalbavancin] . Reported fraction unbound: 0.02
